Catalogue of compounds with associated melting point

Use the examples below as a reference point.
INSERT INTO measurements (test_smiles, value_kind, reported_value) VALUES
  ('Cc1cn2cc(-c3cc4ccc(N5CCN(C)[C@@H](C)C5)cc4oc3=O)nc2c(C)n1', 'melting point', '211 to 215 °C'),
  ('Cc1ccc2nc(-c3cc4ccc(O[C@@H]5CCNC5)cc4oc3=O)cn2c1.Cl.Cl', 'melting point', '261 to 265 °C'),
  ('Cc1cn2cc(-c3cc4ccc(N5CCN6CCC[C@H]6C5)cc4oc3=O)ccc2n1', 'melting point', '231 to 233 °C'),
  ('C[C@@H]1CN(c2ccc3cc(-c4cn5cc(Cl)sc5n4)c(=O)oc3c2)C[C@H](C)N1', 'melting point', '270 to 273 °C'),
  ('O=c1oc2cc(N3CCNCC3)cc(F)c2cc1-c1nc2ccccc2o1', 'melting point', '245 to 250 °C'),
  ('Cc1csc(-c2cc3ccc(N4C[C@@H](C)NC[C@@H]4C)cc3oc2=O)n1', 'melting point', '184 to 190 °C');

query: Please report the recorded melting point for Cc1ccc2nc(-c3cc4ccc(N5C[C@@H](C)N[C@@H](C)C5)cc4oc3=O)cn2c1 .
result: 235 to 237 °C

query: Name the reported melting point value associated with the compound COc1ccn2cc(-c3cc4ccc(N5C[C@@H](C)N[C@@H](C)C5)cc4oc3=O)nc2c1
result: 225 to 230 °C

* * *

Recorded melting point by entry

Consider the reported melting point for these compounds:
INSERT INTO results (compound, reported_value) VALUES
  ('CN1CCN(c2ccc3cc(-c4cn5cc(Cl)ccc5n4)c(=O)oc3c2)CC1 [Compound 94]', '290 to 292 °C'),
  ('Cc1cn2cc(-c3cc4ccc(N5C[C@H]6CCCN(CCO)[C@H]6C5)cc4oc3=O)nc2c(C)n1 [Compound 785]', '207 to 217 °C'),
  ('Cc1cn2cc(-c3cc4ccc(C5CCN(C6CCC6)CC5)cc4oc3=O)nc2cn1 [Compound 869]', '256 to 268 °C'),
  ('COc1cccc(-c2cc3ccc(N4CCCN(C)CC4)cc3oc2=O)n1 [Compound 359]', '155 to 158 °C'),
  ('C[C@H]1CN(c2ccc3cc(-c4cn5cc(Cl)cnc5n4)c(=O)oc3c2)CCN1 [Compound 376]', '260 to 262 °C'),
  ('Cc1cn2cc(-c3cc4ccc(CCCN(CCO)CCO)cc4oc3=O)nc2c(C)n1 [Compound 885]', '158 to 162 °C');

query: # query: melting point of entry C[C@@H]1CN(c2ccc3cc(-c4ccc5c(c4)OCCO5)c(=O)oc3c2)C[C@H](C)N1 [Compound 514]
result: 138 to 140 °C

query: What does the record list as melting point for Cc1cn2cc(-c3cc4ccc(N5CCN(C)[C@H](C)C5)cc4oc3=O)nc2c(C)n1 [Compound 606] ?
result: 220 to 221 °C

* * *

VALUE_KIND: melting point

Worked cases, answers included:
INSERT INTO results (compound, reported_value) VALUES
  ('Cl.O=c1oc2cc(N3CCNCC3)ccc2cc1-c1nc2c(I)cccc2o1', '280 to 285 °C'),
  ('Cc1cn2cc(-c3cc4ccc(N(C)[C@@H]5CCNC5)cc4oc3=O)nc2c(C)n1', '192 to 202 °C'),
  ('Cc1ccn2cc(-c3cc4ccc(N5CCN(C)CC5)cc4oc3=O)nc2c1', '252 to 262 °C'),
  ('O=c1oc2cc(N3CCNCC3)c(F)cc2cc1-c1nc2ccccc2s1', '255 to 260 °C'),
  ('CN1CCN(c2ccc3cc(-c4cn5cnccc5n4)c(=O)oc3c2)CC1', '253 to 255 °C');

query: Name the recorded melting point for Cc1cn2cc(-c3cc4ccc(N(C)C5CCN(Cc6ccccc6)C5)cc4oc3=O)nc2c(C)n1 (stereo not drawn) .
result: 150 to 152 °C

query: So what's the measured melting point for this one? Cc1cn2cc(-c3cc4ccc(CCCN5CCOCC5)cc4oc3=O)nc2c(C)n1
result: 168 to 172 °C

query: Data request, read-out melting point, for Cc1nccn2cc(-c3cc4ccc(N5CCNCC5)cc4oc3=O)cc12
result: 264 to 266 °C

query: Could you tell me which melting point is on file for CCNCCOc1ccc2cc(-c3cn4cc(C)nc(C)c4n3)c(=O)oc2c1 ?
result: 189 to 193 °C
